Answer each item with its documented TGI.
System: KM12 colon
Assay: NCI tumour cell line growth inhibition, 48 h

Prompt: Suppose we examine the molecule COC(=O)CCC(NC(=S)N/N=C(\C)c1cnccn1)C(=O)OC (stereo not drawn) ; what TGI value has been reported?
Completion: > 100 µM

Prompt: # TGI lookup, item `O=C(c1cc(Cc2n[nH]c(=O)c3ccccc23)ccc1F)N1CCN(C(=O)C2CC2)CC1`
Completion: > 100 µM

Prompt: Dear colleague, I am looking for the recorded TGI of the following molecule: COc1cccc(C(NC2=NCCC=N2)c2cc3c(cc2O)OCO3)c1O (stereo not drawn)
Completion: > 100 µM

====

Tested on: MDA-MB-435
Assay: NCI tumour cell line growth inhibition, 48 h
Measure name: TGI (µM)
Hi! Could you send only the number? It should be in µM, unit omitted.

Prompt: Consider the molecule `COCCOCCOCCOCCOC(=O)OC[n+]1ccc(NC(=NCCCCCCOc2ccc(Cl)cc2)NC#N)cc1` and give its measured TGI.
Completion: 14.7

Prompt: Can you look up the measured TGI of `O=[N+]([O-])C(=C/c1cccc2ccccc12)/C(=C\c1cccc2ccccc12)[N+](=O)[O-]` for me?
Completion: 6.12

Prompt: # get_value(readout='TGI', item= `O=C(c1ccco1)c1c(C(F)(F)F)n([O-])c2cc(F)c(F)cc2[n+]1=O` )
Completion: 3.45

Prompt: Requested read-out: TGI. Entry: `Cc1cc(O)c2c3c(ccc2c1)C(=O)c1c(O)cccc1C3=O`
Completion: 0.341

Prompt: Returns the measured TGI for the input molecule. Input: `COc1ccc(C(=O)Oc2c(C#N)sc3c2c(=O)n(-c2ccccc2)c(=S)n3-c2ccccc2)cc1`
Completion: 60.7

Prompt: What value of TGI has been recorded for this entry: O=C1CSC(c2ccccc2O)N1c1ccc(Oc2ccc(Cl)cc2)c(Cl)c1 (stereo unspecified)
Completion: 69

Prompt: What does the data say about its TGI? Entry: C=C(CCC=C(C)C)C1CC=C(C)CC1 (stereo unspecified)
Completion: 35.7

Prompt: Quick check: TGI of COC1=C2CC(C)CC(OC)C(OC(=O)CCCN)C(C)/C=C(\C)C(OC(N)=O)C(OC)/C=C\C=C(/C)C(=O)NC(=CC1=O)C2=O (stereo unspecified) ?
Completion: 12.4

Prompt: I have this molecule here, COc1ccc(C2CC(c3ccc(N(C)C)cc3)=NN2c2ccc(S(N)(=O)=O)cc2)cc1 (stereo unspecified) , and I need its recorded TGI.
Completion: 34.4

Prompt: Give the measured TGI of `Clc1nc(Cl)c2ncn(CCOCCn3cnc4c(Cl)nc(Cl)nc43)c2n1` .
Completion: 0.466

Prompt: Any idea what TGI was measured for `CC(C)N(Cc1ccc(F)cc1)c1ccc(CO)c(Cl)c1` ?
Completion: 29.5

Prompt: Requested field: TGI. Item: `COC1=C(OC)[C@]2(OC)c3c(O)c(OC)c4c(c3O[C@@]23O[C@@H](c2ccccc2)CC=C3C1=O)[C@@H](OC)C[C@H](c1ccccc1)O4`
Completion: 1.1

Prompt: Using the record for `COc1ccc2c(c1)C(=O)c1c-2c(=O)n(CCCN(C)C)c2cc(OC)c(OC)cc12` , report its TGI.
Completion: 23.3

Prompt: Give the measured TGI of `O=C(/C=C(\Nc1ccccc1O)c1ccc(Br)cc1)C(Cl)(Cl)Cl` .
Completion: 21.8

Prompt: Reported TGI, molecule `CCN(Cc1ccc(F)cc1)c1ccc(CO)c(C(F)(F)F)c1` : ____
Completion: 29.4

====

Please provide measured GI50 for the entries that follow.
Tested on: A549 NSCLC
Assay: NCI tumour cell line growth inhibition, 48 h

Prompt: Which GI50 reading was recorded for the compound `CC(=O)N(O)c1ccc(/C=C/c2ccccc2)cc1` ?
Completion: 1.26 µM

Prompt: Form field: reported GI50 of `COc1ccc(S(=O)(=O)N2CCNCC2)cc1OC`
Completion: > 100 µM

Prompt: Which value of GI50 has been reported for `N#Cc1cccc(Nc2ncc(-c3ccccc3)o2)c1` in the records?
Completion: 11.7 µM

Prompt: Would you kindly share the measured GI50 for `Clc1ccc([I+]c2ccc(Cl)cc2Cl)c(Cl)c1` ?
Completion: 2.66 µM

Prompt: Which measured GI50 value corresponds to CC1CCC2C(CN(CC3=C(C(F)(F)F)OC4OC5(C)CCC6C(C)CCC3C46OO5)CC3=C(C(F)(F)F)OC4OC5(C)CCC6C(C)CCC3C46OO5)=C(C(F)(F)F)OC3OC4(C)CCC1C32OO4 (stereo not drawn) ?
Completion: 12.1 µM

Prompt: What measured GI50 goes with CC1SC(c2ccc(Cl)cc2)N(CCc2cccs2)C1=O (stereo not drawn) ?
Completion: 2.07 µM

Prompt: Quick one: GI50 of `O=C1/C(=C/c2ccccc2[N+](=O)[O-])COc2ccc(O)cc21` ?
Completion: 4.49 µM

Prompt: If you can, please state the reported GI50 value of `Cc1ccc(-n2c(-c3cc4c([nH]c5ccccc54)c(-c4cccc(O)c4)n3)n[nH]c2=S)cc1` .
Completion: 2.34 µM

====

Provide the reported TGI of each item.
System: NCI-H226 lung
Assay: NCI tumour cell line growth inhibition, 48 h

Prompt: Form field - read-out: TGI; system: NCI-H226 lung; submitted item: `CNC(=O)CCCNC(=O)CCCC(=O)OC`
Completion: > 100 µM

Prompt: Test system NCI-H226 lung; read-out TGI; what value for `CC(C)N(Cc1ccc(F)cc1)c1ccc(CO)c(Cl)c1` ?
Completion: 0.179 µM

Prompt: So what TGI did `N#Cc1cccc(Nc2ncc(-c3ccccc3)o2)c1` get with NCI-H226 lung?
Completion: > 25 µM

Prompt: Report TGI for C=C(C)CCC1CC=[N+]([O-])OC1C(C)(C)C (configuration not stated) tested on NCI-H226 lung.
Completion: 48.9 µM

Prompt: I'm curious: which TGI was measured for `Cc1cccc(CNc2ncnc3[nH]ncc23)c1` tested on NCI-H226 lung?
Completion: > 100 µM

Prompt: Field: TGI (NCI-H226 lung). Entry: CCOC(=O)C(CCCNC(=O)OC(C)(C)C)N(Cc1ccc(OC)cc1OC)C(=O)CC(=O)CP(=O)(OCC)OCC (configuration not stated)
Completion: > 100 µM

Prompt: Quick check: TGI on NCI-H226 lung, item NC(=O)CC(N)c1nn[nH]n1 (configuration not stated) ?
Completion: > 100 µM

====

Test system: SF-268 CNS
Assay: NCI tumour cell line growth inhibition, 48 h
Measure name: GI50

Prompt: Sample `C[C@H]1CN(C2COC2)CCN1c1ccc(Nc2cc(-c3ccnc(N4CCn5c(cc6c5CC(C)(C)C6)C4=O)c3CO)cn(C)c2=O)nc1` — what was its GI50?
Completion: 29.5 µM

Prompt: # input compound: `Cc1ccc(-n2c(-c3cc4c([nH]c5ccccc54)c(-c4cccc(O)c4)n3)n[nH]c2=S)cc1` ; wanted: its GI50
Completion: 1.32 µM

Prompt: Requested read-out: GI50. Entry: `O=C1C(Nc2cccc(O)c2)=C(Sc2ccccc2)C(=O)N1Cc1ccccc1`
Completion: 10.5 µM

====

Tested on: MOLT-4 leukemia
Assay: NCI tumour cell line growth inhibition, 48 h
Measure name: TGI

Prompt: Find the measured TGI: item `CN(CCNC(=S)c1cn(C)c2c1ccc1ccccc12)CCNC(=S)c1cn(C)c2c1ccc1ccccc12` , target or system MOLT-4 leukemia.
Completion: > 100 µM

Prompt: Identify the measured TGI of `NCc1ccc(-c2nc(-c3ccc(Cl)c(O)c3)c(-c3ccncc3)[nH]2)cc1` for MOLT-4 leukemia.
Completion: > 25 µM

Prompt: Observed TGI on MOLT-4 leukemia for `C=CC(=O)N[C@@H](/C=C/C(=O)OCC)Cc1ccc(-c2cc(Cl)cc(Cl)c2)cc1` , please.
Completion: > 100 µM

Prompt: What TGI appears in the records for this compound with MOLT-4 leukemia? `CC(C)CCC[C@@H](C)[C@H]1CC[C@H]2C3=C[C@H](OS(=O)(=O)O)[C@@]4(O)C[C@@H](O)CC[C@]4(C)[C@@]3(O)CC[C@]12C`
Completion: > 100 µM

Prompt: Which measured TGI belongs to `C/C(=N\NC(=S)Nc1ccc([N+](=O)[O-])cc1)c1nc2ncccc2[nH]1` , tested on MOLT-4 leukemia?
Completion: 13.3 µM

Prompt: Form field - read-out: TGI; system: MOLT-4 leukemia; submitted item: `Cc1ccc(S(=O)(=O)N2CCN(S(=O)(=O)c3ccc(C)cc3)CCN(S(=O)(=O)c3ccc(C)cc3)Cc3cc(Br)c(Br)cc3CN(S(=O)(=O)c3ccc(C)cc3)CC2)cc1`
Completion: > 100 µM

Prompt: GET /values?readout=TGI&system=MOLT-4 leukemia&item= `CNC(=O)N1N[C@H](c2ccccc2)[C@@H]1c1ccccc1`
Completion: 71.1 µM

Prompt: Field: TGI (MOLT-4 leukemia). Entry: `C[C@@]1(OC(=O)c2cc([N+](=O)[O-])cc([N+](=O)[O-])c2)C[C@@H]2CCCC[C@@H]21`
Completion: > 100 µM

Prompt: Lab note: need TGI for CC(C)OC(=O)C1Cc2c([nH]c3ccccc23)C(c2ccccc2)N1 (configuration not stated) on MOLT-4 leukemia, anyone have it?
Completion: > 100 µM

Prompt: Form: Entry = `COc1cc(-c2cc(=O)c3ccccc3[nH]2)cc(OC)c1OC` | System = MOLT-4 leukemia | TGI = ____
Completion: > 75 µM

Prompt: Param readout = TGI; param system = MOLT-4 leukemia; param query = O=C(Cc1ccccc1)C(c1ccccc1)S(=O)(=O)c1ccccc1 (configuration not stated) ; response: value
Completion: > 100 µM

Prompt: Observed TGI on MOLT-4 leukemia for C=C1C=CC2(Br)OC3CC(C)(Cl)C(Br)CC13C2(C)C (configuration not stated) , please.
Completion: 34.9 µM

Prompt: What reported TGI corresponds to `O=S(=O)(O)c1ccc2cc(N=Nc3c(O)ccc4ccccc34)ccc2c1` on MOLT-4 leukemia?
Completion: > 100 µM

Prompt: Which TGI is reported with MOLT-4 leukemia for this entry: CN(C)C(F)=PC(F)(F)F (configuration not stated) ?
Completion: > 100 µM

Prompt: # query: TGI | item O=C(CO)C1CC2C=CC1C2 (configuration not stated) | system: MOLT-4 leukemia
Completion: > 100 µM

Prompt: MOLT-4 leukemia / TGI / O=c1ccn(/C=C/C(O)C(O)CO)c(=O)[nH]1 (configuration not stated) : value?
Completion: > 100 µM

Prompt: What measured TGI is associated with `Cc1ccc(NC(=O)/C(C#N)=C/c2ccccc2)c(C)c1` on MOLT-4 leukemia?
Completion: > 100 µM

Prompt: Request: TGI, test system MOLT-4 leukemia, entry `NC(=O)c1sc2nc3ccccc3n2c1N`
Completion: > 100 µM

Prompt: Item `O=C(c1ccco1)c1c(C(F)(F)F)n([O-])c2cc(F)c(F)cc2[n+]1=O` with MOLT-4 leukemia - TGI?
Completion: 0.411 µM

Prompt: Look up TGI with MOLT-4 leukemia for this compound: COc1c(OC(C)C)cc2cc(O)c(C(=O)NC3Cc4ccc(c(Cl)n4)O[C@@H]4C=C5C#C/C(=C\C#CC6OC56C4OC4CC(C)(O)C(O)C(C)O4)C(OC4CC(O)C(N(C)C)C(C)O4)COC3=O)cc2c1OC (some centres not stated)
Completion: 14.2 µg/mL

Prompt: Requested read-out TGI, target or system MOLT-4 leukemia, entry `O=[N+]([O-])c1cc(Cc2cc([N+](=O)[O-])c3cccnc3c2O)c(O)c2ncccc12`
Completion: > 30.4 µM

Prompt: Hello, I am looking for reported TGI with MOLT-4 leukemia for CCOP(=O)(OCC)C(Cc1ccc(Cl)cc1)NS(=O)(=O)c1ccc(C)cc1 (configuration not stated) . Could you help?
Completion: > 100 µM

Prompt: Recorded TGI for `Nc1nc2ccccc2c2c1S(=O)(=O)c1ccc(Cl)cc1C2=O` with MOLT-4 leukemia, please?
Completion: 8.86 µM

Prompt: Identify the measured TGI of Nc1nc2c(ncn2CCCC(c2ccccc2)P(=O)(O)O)c(=O)[nH]1 (configuration not stated) for MOLT-4 leukemia.
Completion: > 100 µM

Prompt: Look up TGI with MOLT-4 leukemia for this compound: `c1ccc(C2=C(c3ccccc3)Sc3nnc(CCCCCCCCc4nnc5n4NC(c4ccccc4)=C(c4ccccc4)S5)n3N2)cc1`
Completion: 49.9 µM

Prompt: Return TGI measured with MOLT-4 leukemia given this compound: c1n[nH]cc1C12C3C4C5C3C1C5C42 (configuration not stated)
Completion: > 100 µM

Prompt: Notebook entry, MOLT-4 leukemia assay: TGI of `c1ccc(C2CCCCC2)c(OCCCCCN2CCNCC2)c1` = ?
Completion: 5.07 µM

Prompt: For MOLT-4 leukemia, provide TGI of CCOC(=O)C(Cc1ccc(N(CCCl)CCCl)cc1)NC(=O)C(Cc1ccccc1)NC(C)=O (configuration not stated) please.
Completion: 0.201 µM

Prompt: Give recorded TGI with MOLT-4 leukemia for the following compound: `CC(=O)N(O)c1ccc(/C=C/c2ccccc2)cc1`
Completion: > 100 µM

Prompt: Can you look up TGI on MOLT-4 leukemia for N#C/C(=C1\OC(=N)C(c2ccc(Cl)cc2Cl)C1=O)c1ccc(Cl)cc1Cl (configuration not stated) ?
Completion: > 100 µM

Prompt: Please provide the recorded TGI for `N#Cc1c(NC(=O)c2ccccc2F)sc2c1CCCC2` , tested on MOLT-4 leukemia.
Completion: > 25 µM

Prompt: Value wanted: TGI (MOLT-4 leukemia) of entry `CCCCN(C)C(=O)C1=C(C)NC(C)=C(C(=O)N(C)CCCC)C1`
Completion: > 100 µM
